From: paper PMC9654784

Biological target: SARS-CoV-2 nsp13 (Severe acute respiratory syndrome coronavirus 2, UniProt P0DTD1)
Experiment: SARS-CoV-2 nsp13 unwinding-associated activity
Type: biochemical
Conditions: concentration required to inhibit nsp13-associated unwinding activity by 50%; 1 nM nsp13, 1 mM ATP, 750 nM DNA substrate
pIC50: −log10 of the molar value.
Entries and their pIC50 values follow.

Molecule | Censor symbol | pIC50
CC(C)(Cc1cccc(CC(=O)NCc2cccc(-c3ccc(O)cc3)c2)c1)NC[C@H](O)c1ccc(O)c(NS(C)(=O)=O)c1 [PF-00610355] | = | 4.65
OC[C@H]1O[C@@H](Oc2cc(O)cc(/C=C/c3ccc(O)cc3)c2)[C@H](O)[C@@H](O)[C@@H]1O [Polydatin] | < | 4.52
CC(C)=CCc1c(O)cc(O)c2c(=O)cc(-c3ccc(O)cc3)oc12 [Licoflavone C] | = | 5.06
CCO/N=C(\C(=O)N[C@@H]1C(=O)N2C(C(=O)[O-])=C(Sc3nc(-c4cc[n+](C)cc4)cs3)CS[C@H]12)c1nsc(NP(=O)(O)O)n1 [Ceftaroline fosamil] | < | 4.52
CC(C)(C)c1cc(NC(=O)NCc2ccccc2Sc2ccc3nnc(-c4ccccc4SCCO)n3c2)n(-c2ccc(O)c(Cl)c2)n1 [PF-03715455] | = | 5.52
C=CCn1c(CSc2ccccc2[N+](=O)[O-])n[nH]c1=S [SSYA10-001] | = | 5.64
